Measured abundance fitness, listed per entry.
B1: Segment polarity protein dishevelled homolog DVL-3, residues 2 to 81; numbered along this chain, Q92997 (parent)
chain: GETKIIYHLDGQETPYLVKLPLPAERVTLADFKGVLQRPSYKFFFKSMDDDFGVVKEEISDDNAKLPCFNGRVVSWLVSA

# Variants of: B1
# experimental_details: abundance fitness (aPCA) (normalised: wild type 0, dead -1); higher = more abundant; growth selection in yeast, the domain comes from the species named
# setup_conditions: Homo sapiens
quantity_measured: abundance fitness

| item_sequence | result_number |
| --- | --- |
| GETKIIYHLDGQETPYLVKLPLPAERVTLADFKGVLQRSSYKFFFKSMDDDFGVVKEEISDDNAKLPCFNGRVVSWLVSA | 0.051 |
| GETKIIYHLDGQETPYLVKLPLPAERVTLADFKGVLQRPSYKFFFKSMDDDFGVVKEEISDDNAKLPCFQGRVVSWLVSA | -0.341 |
| GETKIIYHLDGQETPYLVKLPLPAERVTLADFKGVLQRPSYKFFFKSMDDDFGVVKEEISDDNVKLPCFNGRVVSWLVSA | -0.506 |
| GETKIIYHLDGQETPYLVKLPLPAERVTLADFKGVLQRPSYKFFFKSVDDDFGVVKEEISDDNAKLPCFNGRVVSWLVSA | 0.125 |
| GETKIIYHLDGQETPYLVKLPLPAERVTLADFKGVLQRPSYKFFFKSMDDDFGVGKEEISDDNAKLPCFNGRVVSWLVSA | -0.335 |
| GETKIIYHLDGQETPYLVKLPLPAERVTLADFKGVLQRPSYKFFFKSMDDDFGVVAEEISDDNAKLPCFNGRVVSWLVSA | -0.32 |
| GETKIIYHLDGQETPYLVKLPLPAERVTLADFKGVLQRPSYKFFFKSMDDDFCVVKEEISDDNAKLPCFNGRVVSWLVSA | 0.2 |
| GETKIIYHLDGQETPYLVKLPLPAERVTLADFKGVLQRRSYKFFFKSMDDDFGVVKEEISDDNAKLPCFNGRVVSWLVSA | -0.037 |
| GETKIIYHLDGQETPYLVKLPLPAERVTLADFKGVLQRPSYKFFFISMDDDFGVVKEEISDDNAKLPCFNGRVVSWLVSA | -0.189 |
| GETKIIYHLDGQETPYLVKLPLPAERVTLADFKGHLQRPSYKFFFKSMDDDFGVVKEEISDDNAKLPCFNGRVVSWLVSA | -0.301 |
| GETKIIYHLDGQETPYLVKLPLPAERVTLADFKGVLQRPSYKFFFKSMDDDFEVVKEEISDDNAKLPCFNGRVVSWLVSA | 0.209 |
| GETKIIYHLDGQETPYLVKLPLPAERVTLADFKGVLQRPSYKFVFKSMDDDFGVVKEEISDDNAKLPCFNGRVVSWLVSA | -0.756 |
| GETKIIYHLDGQETPYLVKLPLPAERVTLADFKGVLQRPSYKFFFKKMDDDFGVVKEEISDDNAKLPCFNGRVVSWLVSA | 0.324 |
| GETKIIYHLDGQETPYLVKLPLPAERVTLNDFKGVLQRPSYKFFFKSMDDDFGVVKEEISDDNAKLPCFNGRVVSWLVSA | -0.433 |
| GETKIIYHLDGQETPYLVKLPLPAERVTLADFKGVLQRPSYKFFFCSMDDDFGVVKEEISDDNAKLPCFNGRVVSWLVSA | -0.068 |
| GETKIIYHLDGQETPYLVKLPLAAERVTLADFKGVLQRPSYKFFFKSMDDDFGVVKEEISDDNAKLPCFNGRVVSWLVSA | -0.395 |
| GETKIIYHLDGQETPYLVKLPLPAERVTLADFKGVLQRPSYKFFFKSMDDDFGVVKEEISDDNAKGPCFNGRVVSWLVSA | -0.789 |
| GETKIIYHLDGQETPYLVKLPLPAERVTLADFKGVLQRPSYKFFFKSMDDDFGVVKEEISDDNAKLPCFNGREVSWLVSA | -0.786 |
| GETKIIYHLDGQETPYLVKLPLPAERVTLADFKGVLQRPSYKFFFKSMDDDSGVVKEEISDDNAKLPCFNGRVVSWLVSA | 0.37 |
| GETKIIYHLDGQETPYLVKLPLPAERVTEADFKGVLQRPSYKFFFKSMDDDFGVVKEEISDDNAKLPCFNGRVVSWLVSA | -0.782 |
| GETKIIYHLDGQETPYLVKLPLPAERVTLADFKGVLQLPSYKFFFKSMDDDFGVVKEEISDDNAKLPCFNGRVVSWLVSA | -0.114 |
| GETKIIYHLDGQETPYLVKLPLPAERVTLADFKGVLQRPSYKIFFKSMDDDFGVVKEEISDDNAKLPCFNGRVVSWLVSA | -0.611 |
| GETKIIYHLDGQETPYLVKLPLPAERVTLADFKGVLQRPSYKFFFKSMDDDFGVVKEEISDDNAKLPCFNGRVQSWLVSA | -0.777 |
| GETKIIYHLDGQETPYLVKLPLPAERVTLADFKGVFQRPSYKFFFKSMDDDFGVVKEEISDDNAKLPCFNGRVVSWLVSA | 0.097 |
| GETKIIYHLDGQETPYLVKLPLPAERVTLADFKGVLQRPSYKFFFKSMDDDFGVVKEEISDDNAKLPCFNGRVVSWLVST | 0.185 |
| GETKIIYHLDGQETPYLVKLPLPAERVTLADFKGVLQRPSYKFFFKSMDDDFGVVKEEISDDNAFLPCFNGRVVSWLVSA | -0.284 |
| GETKIIYHLDGQETPYLVKLPLPAERVTLADFKGILQRPSYKFFFKSMDDDFGVVKEEISDDNAKLPCFNGRVVSWLVSA | -0.141 |
| GETKIIYHLDGQETPYLVKLPLPAERVTLADFKGVLQRPSYKFFFKSMDDDFGVVKEEISNDNAKLPCFNGRVVSWLVSA | -0.33 |
| GETKIIYHLDGQETPYLVKLPLPAECVTLADFKGVLQRPSYKFFFKSMDDDFGVVKEEISDDNAKLPCFNGRVVSWLVSA | -0.102 |
| GETKIIYHLDGQETPYLVKLPLPAERVTLADFKGVLQRPSYKFFFKSEDDDFGVVKEEISDDNAKLPCFNGRVVSWLVSA | 0.09 |
| GETKIIYHLDGQETPYLVKLCLPAERVTLADFKGVLQRPSYKFFFKSMDDDFGVVKEEISDDNAKLPCFNGRVVSWLVSA | -0.391 |
| GETKIIYHLDGQETPYLVKLPLPAERVTLADFKGVLQRPSWKFFFKSMDDDFGVVKEEISDDNAKLPCFNGRVVSWLVSA | -0.331 |
| GETKIIYHLDGQETPYLVKLPLPAERVTLADFKGVLQRPSYKFFFKSMDDDFGVVKEEISDDKAKLPCFNGRVVSWLVSA | -0.175 |
| GETKIIYHLDGQETPYLVKLPLPAERVTLADFKGVLQRPSYKFFFKSMDDDFGVVKEEISDDNIKLPCFNGRVVSWLVSA | -0.414 |
| GETKIIYHLDGQETPYLVKLPLPAERVTLADFKGVLQRPSVKFFFKSMDDDFGVVKEEISDDNAKLPCFNGRVVSWLVSA | -0.388 |
| GETKIIYHLDGQETPYLVKLPLPAERVTLADFKGVLQRPSYKFFFKSMDDDFGVVKEEISDDNAKLVCFNGRVVSWLVSA | -0.728 |
